test system: LOC_OS06G16330-cb003; assay: thermal shift delta Tm vs DMSO control; higher = stronger stabilization (binding); conditions: 12.5 µM; protein concentration 2 µM;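 also: purified Escherichia coli-expressed rice kinase domain construct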
Sequence (as listed by the source): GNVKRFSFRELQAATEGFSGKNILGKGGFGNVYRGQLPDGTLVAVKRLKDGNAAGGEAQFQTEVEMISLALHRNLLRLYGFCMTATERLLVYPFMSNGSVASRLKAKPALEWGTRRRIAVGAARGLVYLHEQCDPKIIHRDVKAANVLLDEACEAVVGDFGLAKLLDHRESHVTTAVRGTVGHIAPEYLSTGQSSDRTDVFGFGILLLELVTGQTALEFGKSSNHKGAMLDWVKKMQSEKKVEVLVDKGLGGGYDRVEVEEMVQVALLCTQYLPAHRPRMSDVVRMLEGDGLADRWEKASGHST
Assign class by thermal shift delta Tm: not lower than 0.2 °C means TRUE; lower than 0.2 °C means FALSE.

Please review the entries below; each comes with its answer.
Exam item: decide whether the reported thermal shift delta Tm for CO[C@H]1C[C@@H]2CC[C@@H](C)[C@@](O)(O2)C(=O)C(=O)N2CCCC[C@H]2C(=O)O[C@H]([C@H](C)C[C@@H]2CC[C@@H](O)[C@H](OC)C2)CC(=O)[C@H](C)/C=C(\C)[C@@H](O)[C@@H](OC)C(=O)[C@H](C)C[C@H](C)/C=C/C=C/C=C/1C [Rapamycin (Sirolimus)] is at least 0.2 °C.
FALSE

Decide: thermal shift delta Tm of Nc1nc2cc(-c3ccc4ncc(C(=O)N5CCOCC5)n4c3)ccc2o1 [Serabelisib (INK-1117,MLN-1117,TAK-117)] >= 0.2 °C?
TRUE

Decide: is the reported value of thermal shift delta Tm for "CC(C)n1nc(-c2ccc3oc(N)nc3c2)c2c(N)ncnc21" equal to or greater than 0.2 °C?
TRUE

As a next step, examine the molecule that follows.
Test whether the molecule "COc1cc2ncnc(Sc3nnc(C)s3)c2cc1OC" records thermal shift delta Tm of 0.2 °C or higher.
TRUE

====

system: LOC_OS07G07230-cb001; assay: thermal shift delta Tm vs DMSO control; higher = stronger stabilization (binding); conditions: 12.5 µM; protein concentration 2 µM
quantity.kind: thermal shift delta Tm
Express your answer as a number followed by its unit.

Record request: thermal shift delta Tm value, item "O=c1c(O)c(-c2cc(O)c(O)c(O)c2)oc2cc(O)cc(O)c12"
0.47 °C

Further cases:
Given the molecule "COc1cccc2cc(-c3nc([C@H]4CC[C@H](C(=O)O)CC4)n4ncnc(N)c34)[nH]c12" , what is its reported thermal shift delta Tm?
0.08 °C

Which value of thermal shift delta Tm has been reported for "CC(C)n1nc(-c2cc3cc(O)ccc3[nH]2)c2c(N)ncnc21" in the records?
0.14 °C

Query (molecule): "COc1c(C)c(C(=O)c2ccc(N)c(C(=O)O)c2)n2ccccc12" ; field requested: thermal shift delta Tm
0.36 °C

Recorded thermal shift delta Tm for "CCc1cccc(CC)c1NC(=O)N1Cc2[nH]nc(NC(=O)c3ccc(N4CCN(C)CC4)cc3)c2C1" , please?
0.12 °C

====

tested on: LOC_OS02G08530-cb003; assay: thermal shift delta Tm vs DMSO control; higher = stronger stabilization (binding); conditions: 12.5 µM; protein concentration 2 µM
Counter-ions that a name gives are not always drawn.
Hi, to clarify the labels: Y covers thermal shift delta Tm from 1 °C upward, N covers anything below 1 °C.

Illustrative cases are given below, each with its answer.
Does the compound "CN1CCN(S(=O)(=O)c2ccc(-c3cnc(N)c(C(=O)Nc4cccnc4)n3)cc2)CC1" have recorded thermal shift delta Tm that is 1 °C or more?
Y

Is thermal shift delta Tm at least 1 °C? Consider "CCS(=O)(=O)c1cccc(-c2cc(C(=O)NC3CCN(C)CC3)c(C)c3[nH]c4ncc(C)cc4c23)c1"
Y

Is the recorded value of thermal shift delta Tm equal to or greater than 1 °C for this compound? Cc1nc(Nc2ncc(C(=O)Nc3c(C)cccc3Cl)s2)cc(N2CCN(CCO)CC2)n1 [Dasatinib]
N

Further cases:
// inclusive: thermal shift delta Tm at least 1 °C? input: "Cc1c[nH]c(/C=C2\C(=O)Nc3ccccc32)c1CCC(=O)O"
Y

Given the entry Cc1ccc(F)c(NC(=O)Nc2ccc(-c3cccc4[nH]nc(N)c34)cc2)c1 [Linifanib (ABT-869)] , answer whether its thermal shift delta Tm meets or surpasses 1 °C.
Y

Could you please find out whether C[C@H]1CNCCCN1S(=O)(=O)c1cccc2cncc(F)c12 [Ripasudil (K-115) hydrochloride dihydrate] has thermal shift delta Tm that meets 1 °C or exceeds it?
N

Dear colleague, could you confirm whether "C=CC(=O)Nc1cccc(Nc2nc(Nc3ccc(Oc4ccnc(C(=O)NC)c4)cc3)ncc2F)c1" has thermal shift delta Tm at or above 1 °C?
Y

====

test system: LOC_OS05G16824-cb004; experiment: thermal shift delta Tm vs DMSO control; higher = stronger stabilization (binding); details: 12.5 µM; protein concentration 2 µM
Below, each of the molecules is paired with its reported thermal shift delta Tm value.
Report the figure along with its unit, number first.

Any idea what thermal shift delta Tm was measured for "O=C(NOCCO)c1ccc2cncn2c1Nc1ccc(I)cc1F" ?
-1.92 °C

# input molecule: "Oc1c2ccccc2c2c3c(cccc13)N=N2" ; wanted: its thermal shift delta Tm
9.67 °C

Item under review: "CCN1CCN(Cc2ccc(C(=O)Nc3ccc(C)c(Oc4ccc5c(c4)CC(=O)N5)c3)cc2C(F)(F)F)CC1" . Reported thermal shift delta Tm?
2.03 °C

Endpoint output: thermal shift delta Tm of "CC[C@@H](N)CNc1ccnc(-c2cc(-c3cnn(C)c3)ccc2O)n1" . Value?
8.38 °C

Reported thermal shift delta Tm for C[C@]1(O)C[C@@H](c2nc(-c3ccc4ccc(-c5ccccc5)nc4c3)c3c(N)nccn32)C1 [Linsitinib (OSI-906)] : what is it?
1.1 °C

Continue with the next molecule.
For the molecule O=C(c1ccc(F)c(F)c1Nc1ccc(I)cc1F)N1CC(O)([C@@H]2CCCCN2)C1 [Cobimetinib (GDC-0973, RG7420)] , what thermal shift delta Tm is on record?
-1.19 °C

====

Test system: LOC_OS01G52050-cb004
Sequence (whole entry): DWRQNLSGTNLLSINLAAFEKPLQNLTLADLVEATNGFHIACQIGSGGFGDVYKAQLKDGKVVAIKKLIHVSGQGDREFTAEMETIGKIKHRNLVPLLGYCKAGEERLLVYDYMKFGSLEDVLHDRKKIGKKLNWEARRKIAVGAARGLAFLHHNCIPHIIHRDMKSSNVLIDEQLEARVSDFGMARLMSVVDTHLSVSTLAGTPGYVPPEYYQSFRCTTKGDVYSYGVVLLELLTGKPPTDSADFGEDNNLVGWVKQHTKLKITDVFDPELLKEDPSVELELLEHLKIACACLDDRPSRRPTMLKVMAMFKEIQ
Test: thermal shift delta Tm vs DMSO control; higher = stronger stabilization (binding)
Settings: 12.5 µM; protein concentration 2 µM
Please use the following thermal shift delta Tm ranges when assigning a class: low: < 0.4 °C; middle: ≥ 0.4 °C and < 2 °C; high: ≥ 2 °C

Consider the worked cases shown below.
Sort into band: "Cc1c(NC(=O)c2ccc(C(C)(C)C)cc2)cccc1-c1cn(C)c(=O)c(Nc2ccc(C(=O)N3CCOCC3)cc2)n1"
low

Class for "CCS(=O)(=O)N1CCN(c2ccc(Nc3ncc(C(N)=O)c(NC4CC4)n3)cc2)CC1" ?
high

Dear colleague, I would appreciate it if you could identify the bin for "C[C@@H](NC(=O)c1ncnc(N)c1Cl)c1ncc(C(=O)Nc2cc(C(F)(F)F)c(Cl)cn2)s1" and reply at your convenience.
middle

Where would "C=CC(=O)N1CCN(CCCn2c(=O)c(-c3c(Cl)c(OC)cc(OC)c3Cl)cc3cnc(NC)nc32)CC1" land among the classes by reported thermal shift delta Tm?
middle

Bin this entry: "C=CC(=O)Nc1cccc(Nc2nc(Nc3ccc(NC4CN(CCF)C4)cc3OC)ncc2C(F)(F)F)c1"
low

---
Consider "CN(C)C/C=C/C(=O)Nc1ccc(C(=O)Nc2cccc(Nc3ncc(Cl)c(-c4c[nH]c5ccccc45)n3)c2)cc1" . To which thermal shift delta Tm class does it belong?
high

Entry "CC(C)N(CCC(=O)c1ccc2ccccc2c1)Cc1ccccc1" belongs to which category?
low

====

system: LOC_OS01G01410-cb001; test: thermal shift delta Tm vs DMSO control; higher = stronger stabilization (binding); details: 12.5 µM; protein concentration 2 µM
Below is a list of entries, each paired with its recorded thermal shift delta Tm value.

Bench note: what thermal shift delta Tm did "O=C(Nc1cc(C(F)(F)F)cc(C(F)(F)F)c1)c1cc(Cl)ccc1O" show?
1.21 °C

Give its thermal shift delta Tm value. Item: "O=c1cc(N2CCOCC2)oc2c1ccc1ccccc12"
-0.07 °C

Which thermal shift delta Tm reading was recorded for the compound "CNC(=O)c1cc(COc2nnc(Nc3ccc(Cl)cc3)c3ccoc23)ccn1" ?
0.67 °C

Data request, read-out thermal shift delta Tm, for "C=CC(=O)Nc1cc(Nc2nccc(-c3c[nH]c4ccccc34)n2)c(OC)cc1N(C)CCN(C)C"
0.92 °C

Requested read-out: thermal shift delta Tm. Entry: "NC1(c2ccc(-c3nc4ccn5c(=O)[nH]nc5c4cc3-c3ccccc3)cc2)CCC1"
0.94 °C

Data request, read-out thermal shift delta Tm, for "CCNC(=O)Nc1ccc(-c2nc(N3CCOC[C@@H]3C)c3c(n2)C(C)(C)S(=O)(=O)C3)cc1"
0.67 °C

---
Entry "CNS(=O)(=O)C[C@H]1CC[C@H](N(C)c2[nH]cnc3nccc2-3)CC1" : reported thermal shift delta Tm = ?
0.92 °C

GET /values?readout=thermal shift delta Tm&item= "Nc1nc(Nc2ccc(S(N)(=O)=O)cc2)nn1C(=O)c1c(F)cccc1F"
4.86 °C

All figures here come from the supplement of paper PMC9694430.
